# Tested on: A549
# TEST_METHOD_NOTES: Cytotoxicity against human A549 cells by MTT assay
# Format: functional, cell-based

{"COMPOUND": "CC(=O)O[C@@]12CO[C@@H]1C[C@H](O)[C@@]1(C)C(=O)[C@H](O)C3=C(C)[C@@H](OC(=O)[C@H](OC(=O)C[C@H](O)C(=O)[O-])[C@@H](NC(=O)OC(C)(C)C)c4ccccc4)C[C@@](O)([C@@H](OC(=O)c4ccccc4)[C@H]21)C3(C)C.[Na+]", "IC50": "> 50 µg/mL"}
{"COMPOUND": "CC(=O)O[C@@]12CO[C@@H]1C[C@H](OC(=O)CC(O)C(=O)O)[C@@]1(C)C(=O)[C@H](OC(=O)CC(O)C(=O)O)C3=C(C)[C@@H](OC(=O)[C@H](OC(=O)CC(O)C(=O)O)[C@@H](NC(=O)OC(C)(C)C)c4ccccc4)C[C@@](O)([C@@H](OC(=O)c4ccccc4)[C@H]21)C3(C)C (mixture of isomers)", "IC50": "> 50 µg/mL"}
{"COMPOUND": "CC(=O)O[C@@]12CO[C@@H]1C[C@H](O)[C@@]1(C)C(=O)[C@H](O)C3=C(C)[C@@H](OC(=O)[C@H](OC(=O)CC(O)C(=O)[O-])[C@@H](NC(=O)OC(C)(C)C)c4ccccc4)C[C@@](O)([C@@H](OC(=O)c4ccccc4)[C@H]21)C3(C)C.[Na+] (mixture of isomers)", "IC50": "3.5 µg/mL"}
